# TARGET SYSTEM: NADPH oxidase 2 (Homo sapiens) (UniProt P04839)
# Sequence (P04839 whole entry, looked up): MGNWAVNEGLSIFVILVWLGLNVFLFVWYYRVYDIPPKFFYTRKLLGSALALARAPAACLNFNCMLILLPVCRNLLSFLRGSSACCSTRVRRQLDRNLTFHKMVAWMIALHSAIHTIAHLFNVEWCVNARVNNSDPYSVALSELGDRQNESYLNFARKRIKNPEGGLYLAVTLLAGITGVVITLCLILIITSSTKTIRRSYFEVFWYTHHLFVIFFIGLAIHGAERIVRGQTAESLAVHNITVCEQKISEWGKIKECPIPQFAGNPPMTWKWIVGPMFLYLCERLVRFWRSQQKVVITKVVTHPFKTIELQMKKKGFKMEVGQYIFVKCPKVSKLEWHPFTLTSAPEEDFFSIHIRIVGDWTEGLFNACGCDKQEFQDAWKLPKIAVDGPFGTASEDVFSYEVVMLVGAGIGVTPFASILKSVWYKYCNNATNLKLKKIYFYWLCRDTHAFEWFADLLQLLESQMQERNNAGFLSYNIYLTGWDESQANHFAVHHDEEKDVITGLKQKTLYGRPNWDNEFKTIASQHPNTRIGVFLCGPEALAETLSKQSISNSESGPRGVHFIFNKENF
# EXPERIMENTAL PROTOCOL: NOX2-dependent H2O2 signal modulators, primary screen, NOX inhibitor project, cell-based, HEK293-NOX2, PMA-stimulated, Amplex Red fluorescence (AID 1159); note: test concentration not given here
# SETUP CONDITIONS: 45 min, higher = more signal, called active from +8 up or from −8 down
# if value of z-score reaches -0.7, tag TRUE; if it stays below, tag FALSE

# example entries with known answers
MOLECULE	CLASSIFICATION
CC(C)(C)N1CC=CC23O[C@@H]4C=CCCOC(=O)C4[C@H]2C(=O)N(CCCCCO)[C@@H]3C1=O (some centres not stated)	TRUE
C=COC[C@H]1CN2[C@@H](CC[C@@H](C)[C@@H]2c2ccc(Br)cc2)C(=O)O1	TRUE

Kindly determine if z-score recorded for CCCCCCc1nc(CCCc2cc3c(c(CCCCCC)n2)[Si](C(C)C)(C(C)C)O[C@H]3c2ccccc2)cc2c1[Si](C(C)C)(C(C)C)O[C@H]2c1ccccc1 is above or exactly -0.7. FALSE

How about this molecule: CCOC(=O)[C@H](Cc1ccccc1)NC(=O)CCC1CC(OC(=O)NCc2ccc3c(c2)OCO3)CC2(CCCC(COC(=O)NCC(c3ccccc3)c3ccccc3)O2)O1 (some centres not stated) FALSE

How about this molecule: Cn1cccc1C(O)C1C=CC2C(=O)NC(=O)C2N1Nc1ccccn1 (configuration not stated) FALSE

How about this molecule: CO[C@@H]1COC(=O)CC=C[C@@H](C)[C@@H]2C=C[C@H](O)[C@@H](COC(=O)CCC[C@H]1C)O2 TRUE

How about this molecule: COCCOC(=O)N1C(=O)[C@@]2(c3cc(C#CCNC(N)=O)ccc31)[C@H](c1ccc(O)cc1)N1[C@H](c3ccccc3)[C@H](c3ccccc3)OC(=O)[C@H]1[C@@H]2C(=O)N1CCCCCCC1 TRUE

---

Provide the reported composite z-score of each item.
# TARGET SYSTEM: Focal adhesion kinase 1 (Homo sapiens) (UniProt Q05397)
# Sequence (Q05397 whole entry, looked up): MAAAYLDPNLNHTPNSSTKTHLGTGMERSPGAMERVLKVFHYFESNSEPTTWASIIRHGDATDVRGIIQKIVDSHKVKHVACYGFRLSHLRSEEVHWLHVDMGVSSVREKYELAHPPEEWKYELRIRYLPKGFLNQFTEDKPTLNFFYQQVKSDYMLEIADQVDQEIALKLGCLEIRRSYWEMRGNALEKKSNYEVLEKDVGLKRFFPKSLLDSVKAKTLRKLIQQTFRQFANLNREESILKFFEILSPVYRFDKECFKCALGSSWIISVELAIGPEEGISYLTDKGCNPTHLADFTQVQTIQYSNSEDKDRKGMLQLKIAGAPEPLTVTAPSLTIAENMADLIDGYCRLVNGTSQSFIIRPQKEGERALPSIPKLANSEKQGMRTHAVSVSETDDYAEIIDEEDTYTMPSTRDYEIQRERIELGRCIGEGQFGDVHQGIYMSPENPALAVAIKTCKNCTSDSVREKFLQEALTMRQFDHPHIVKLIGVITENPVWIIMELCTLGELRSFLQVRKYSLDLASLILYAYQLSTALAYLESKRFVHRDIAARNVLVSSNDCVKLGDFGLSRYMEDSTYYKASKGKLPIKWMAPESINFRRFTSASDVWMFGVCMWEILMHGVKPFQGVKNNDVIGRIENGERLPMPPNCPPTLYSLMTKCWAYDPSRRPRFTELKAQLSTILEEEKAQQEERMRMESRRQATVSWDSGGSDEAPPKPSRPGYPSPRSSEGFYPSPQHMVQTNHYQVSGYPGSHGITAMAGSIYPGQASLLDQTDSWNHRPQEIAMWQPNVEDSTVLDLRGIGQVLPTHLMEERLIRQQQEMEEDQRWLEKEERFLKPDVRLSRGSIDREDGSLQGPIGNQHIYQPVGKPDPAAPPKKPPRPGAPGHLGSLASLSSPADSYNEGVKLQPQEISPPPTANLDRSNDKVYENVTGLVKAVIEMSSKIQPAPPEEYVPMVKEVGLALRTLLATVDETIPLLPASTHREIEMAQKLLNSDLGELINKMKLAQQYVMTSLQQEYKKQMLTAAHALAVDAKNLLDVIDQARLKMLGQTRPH
# EXPERIMENTAL PROTOCOL: small-molecule microarray binders of FAK, primary screen, biochemical, 635/667 nm fluorescence, BSA, DTT (AID 1130);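 note: composite of spot emission at 667 nm and signal to noise over triplicate slides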
# SETUP CONDITIONS: PTK2 binding, 635 nm fluorescence, higher = more signal
Give bare numbers.

In [3]: df
Out[3]:
                            compound_string  measured_number
0  Cn1c(=O)n2n(c1=O)[C@H]1[C@H](O)[C@@H]3O[C@@H]3C(=NOC[C@@H](O)COCc3ccco3)[C@H]1CC2           0.0225
1  Cc1ccc(S[C@]2(C(=O)O)CC(=O)N(Cc3ccccc3)[C@@H]2c2ccc(CO)cc2I)cc1            0.284
2  CCCNC(=O)[C@@H]1c2ccccc2C(=O)N(c2ccc(C)cn2)[C@H]1c1ccc(CO)cc1             0.14
3  CCc1cc2c(nc1CC)CCN(CCC(C)=NOC[C@@H](O)[C@H]1O[C@@H]3OC(C)(C)O[C@@H]3[C@H]1O)C2           -0.113
4  C=C(COC)/C(=C/C[C@H](OC(=O)c1ccncc1)c1ccc(CO)o1)c1cc(C(=O)OC)ccc1OC           -0.113

Your task in this section: give composite z-score for each listed record.
1. C=C(/C(=C/C[C@H](OC(=O)c1ccncc1)c1ccc(OCCO)cc1)c1cnc2ccccc2c1)C(C)C
2. C=C(/C(=C/C[C@H](OC(C)=O)c1ccc(OCCO)cc1)c1cnc2ccccc2c1)C(C)C
3. CC(=O)C[C@H](O)[C@@H](NC(=O)OC(C)(C)C)C(C)C
4. CO[C@@H]1COC(=O)CC=C[C@@H](C)[C@@H]2C=C[C@H](O)[C@@H](COC(=O)[C@H](C)NC(=O)CC=C[C@H]1C)O2
5. CCCCC(=C=CC[C@H](O)c1ccccc1OCCO)C[C@H](O)COCc1ccccc1
6. CC(=O)OC[C@H]1O[C@@H](ON=C[C@@H](C)[C@H](OCc2ccccc2)C(C)C)[C@H](OC(C)=O)[C@@H](OC(C)=O)[C@@H]1OC(C)=O

0.144
-0.0763
-0.352
-0.407
0.329
-0.0838

Your task in this section: give composite z-score for each listed record.
1. CCCNC(=O)[C@@H]1c2ccccc2C(=O)N(Cc2ccccc2Cl)[C@H]1c1ccc(CO)cc1
2. NC(=O)NCC#Cc1ccc2c(c1)[C@]1(C(=O)N2)[C@H](c2ccc(O)cc2)N2[C@H](c3ccccc3)[C@H](c3ccccc3)OC(=O)[C@H]2[C@@H]1C(=O)N1CCCCCCC1

1. 0.497
2. -0.222

---

Provide the reported z-score of each item.
# EXPERIMENTAL PROTOCOL: mitochondrial membrane potential change in A549 cells, profiling panel, cell-based, JC-1 fluorescence, basal, 24 h, 100 nL (AID 1138);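 note: A549 lung adenocarcinoma cells under basal conditions with no added stimulus; test concentration not given here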
# SETUP CONDITIONS: higher = more signal
Give bare numbers.

These solved cases illustrate the format of a correct answer.
>>> df
                                   compound  measured_number
0  C=CCN1C(=O)[C@]2(O[C@H](CCn3cc(CCO)nn3)[C@@H]([Si](C)(C)c3ccc(OC)cc3)[C@@H]2C)c2cc(N3CCOC3=O)ccc21            0.982
1  COCCCNC(=O)[C@@]1(CCS(=O)(=O)c2ccccc2)N=C(c2ccc(OCCCO)cc2)O[C@H]1c1ccccc1             2.39
2  CCN1C(=O)[C@H]2[C@H]3[C@H](O)[C@H](O)CC(=NO[C@@H]4O[C@H](CO)[C@@H](O)[C@H](O)[C@H]4O)[C@@H]3CC[C@H]2C1=O            0.459
3  CCCCCN1CC=CC23O[C@@H]4C=CCOC(=O)[C@@H]4[C@H]2C(=O)N(CCCCCCO)[C@@H]3C1=O (some centres not stated)            0.421
4  CCOc1ccc(N2C(=O)/C(=C/C=C/c3ccccc3OC)S(=O)(=O)C2c2cccc([N+](=O)[O-])c2)cc1 (configuration not stated)             2.31

Your task in this section: give z-score for each listed record.
1. C[C@@H]1CCC2C(=O)N(Cc3ccccc3)C[C@@H](O)CN2[C@H]1c1ccc(Br)cc1 (some centres not stated)
2. CC(C)=CCCC(C)=CCON=C1[C@H]2CCn3c(=O)n(Cc4cc5c(cc4Cl)OCO5)c(=O)n3[C@H]2[C@H](O)[C@@H]2O[C@H]12

[1.89, -0.939]

---

# TARGET SYSTEM: NADPH oxidase 5 (Homo sapiens)
# EXPERIMENTAL PROTOCOL: NOX5-dependent H2O2 signal modulators, primary screen, NOX inhibitor project, cell-based, HEK293-NOX5, Amplex Red fluorescence (AID 1161)
# SETUP CONDITIONS: HEK293-NOX5, ionomycin, 45 min, higher = more signal
Provide the reported z-score of each item.

Your task in this section: give z-score for each listed record.
1. CCOC(=O)CCN1C(=O)[C@H]2[C@H]3[C@H](O)[C@H](O)CC(=NOCc4ccccc4)[C@@H]3CC[C@H]2C1=O
2. CO[C@@H]1COC(=O)[C@H](C)NC(=O)[C@@H](C)COC(=O)CCC[C@H]1C

[1.14, -1.15]

Your task in this section: give z-score for each listed record.
1. CCOC(=O)CCN1C(=O)[C@H]2[C@H]3[C@H](O)[C@H](O)CC(=NOC[C@@H](O)COCc4ccco4)[C@H]3CC[C@H]2C1=O
2. CN(C)CCCNC(=O)[C@@H]1c2ccccc2C(=O)N(Cc2ccccc2)[C@H]1c1ccc(CO)cc1

-0.498
-0.911

---

# EXPERIMENTAL PROTOCOL: fission yeast growth modulation, primary screen, strain 972, OD600, 24 h, no modulator (AID 1090);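 note: basal condition with compound alone and no growth modifier present; test concentration not given here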
# SETUP CONDITIONS: S. pombe 972 growth, higher = more signal, called active from +8 up or from −8 down
# if value of z-score reaches 0.7, tag True; if it stays below, tag False

Kindly determine if z-score recorded for C=CC[C@@H]1C=C[C@H](ON=C(C)CCN2CCc3nc(CC)c(CC)cc3C2)[C@@H](CO)O1 is above or exactly 0.7. False

How about this compound: CCOC(=O)C1=CC[C@H]2C(=O)N(CC)C(=O)[C@@H]12 True

How about this compound: COC(=O)[C@@]1(Cc2ccc(F)cc2)[C@@H]2C(=CC(=O)[C@H]2CC(=O)C(=O)N(C)C)CN1C(=O)c1ccccc1 True

How about this compound: CCOC(=O)CCN1C(=O)[C@H]2[C@H]3[C@H](O)C=CC(=O)[C@@H]3CC[C@H]2C1=O False

How about this compound: CCOC(=O)[C@H](Cc1ccccc1)NC(=O)CCC1CC(OC(=O)NCCc2ccc(F)cc2)CC2(CCCC(COC(=O)NCC(c3ccccc3)c3ccccc3)O2)O1 (stereo partly drawn) True

How about this compound: CC(CCN1CCc2nc(-c3ccccc3)c(-c3ccccc3)cc2C1)=NO[C@@H](C)c1cn([C@H](CO)Cc2ccccc2)nn1 False

How about this compound: COCCOC(=O)N1C(=O)[C@@]2(c3cc(C#CC4(O)CCCCCC4)ccc31)[C@H](c1ccc(OCCO)cc1)N1[C@H](c3ccccc3)[C@H](c3ccccc3)OC(=O)[C@H]1[C@@H]2C(=O)NC[C@H](O)c1ccccc1 True

How about this compound: C[C@H](c1ccccc1)N1C(=O)[C@H]2[C@H]3[C@H](O)[C@H](O)CC(=O)[C@@H]3CC[C@H]2C1=O False
